# systemTested: Torsin-1A-interacting protein 1 (Homo sapiens) (UniProt Q5JTV8)
# Sequence (Q5JTV8 whole entry, looked up): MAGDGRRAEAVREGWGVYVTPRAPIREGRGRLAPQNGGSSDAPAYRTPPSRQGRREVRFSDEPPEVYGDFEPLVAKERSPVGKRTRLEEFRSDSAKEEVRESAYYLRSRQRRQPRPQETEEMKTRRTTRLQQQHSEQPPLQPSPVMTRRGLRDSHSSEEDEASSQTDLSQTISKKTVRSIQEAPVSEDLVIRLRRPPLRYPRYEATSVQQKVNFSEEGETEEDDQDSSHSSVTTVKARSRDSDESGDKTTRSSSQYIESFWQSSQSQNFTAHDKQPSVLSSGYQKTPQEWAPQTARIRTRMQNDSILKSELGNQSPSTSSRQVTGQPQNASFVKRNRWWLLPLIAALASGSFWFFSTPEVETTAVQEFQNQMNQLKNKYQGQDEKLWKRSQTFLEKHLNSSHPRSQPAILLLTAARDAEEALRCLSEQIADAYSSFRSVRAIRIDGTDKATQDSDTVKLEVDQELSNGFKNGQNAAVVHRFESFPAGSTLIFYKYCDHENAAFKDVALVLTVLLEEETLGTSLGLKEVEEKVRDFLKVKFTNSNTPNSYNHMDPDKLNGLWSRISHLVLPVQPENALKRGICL
# protocolDetails: LAP1 binders from COS7 cell lysate, primary screen, small-molecule microarray, 635/667 nm fluorescence (AID 1116)
# protocolConditions: COS7-hLAP1 lysate binding, 635 nm fluorescence, higher = more signal
Cut-off 0.7 on composite z-score, inclusive. At or above means label 1; below means label 0.

Reference set, count: 5
{"molecule": "COC(=O)[C@@]1(Cc2ccc(OC)cc2)[C@H]2c3cc(C(=O)N4CCCC4)n(CCN4CNCC4=O)c3C[C@H]2CN1C(=O)c1ccccc1", "group": "label 1"}
{"molecule": "NC(=O)NCC#Cc1ccc2c(c1)[C@]1(C(=O)N2)[C@H](c2ccccc2OCCO)N2[C@H](c3ccccc3)[C@H](c3ccccc3)OC(=O)[C@H]2[C@@H]1C(=O)Nc1nc2ccccc2s1", "group": "label 0"}
{"molecule": "O=C1C[C@@](C(=O)NCCN2CCOCC2)(c2ccc([N+](=O)[O-])cc2)[C@@H](c2ccc(CO)cc2)N1CC12CC3CC(CC(C3)C1)C2", "group": "label 0"}
{"molecule": "CCS[C@H]1[C@@H](C(=O)O)[C@H](c2ccc(C)cc2)N(S(=O)(=O)c2ccc(C)cc2)[C@@H]1CC", "group": "label 1"}
{"molecule": "C=C(C(=O)CC[C@@H](OC(=O)c1cccnc1)c1ccccc1OCCO)C(C)C", "group": "label 1"}

Is composite z-score at least 0.7? Consider `C=CCOC(=O)[C@H]1[C@@H]2C(=O)O[C@@H](c3ccccc3)[C@@H](c3ccccc3)N2[C@@H](c2ccc(OCCOC(=O)[C@H]3C[C@H]4C(=O)N[C@@H](CCCCNC(C)=O)C(=O)N4[C@H]3c3cccc(OCCO)c3)cc2)[C@]12C(=O)Nc1ccccc12`
label 1
